- Tested on: human monocyte-derived macrophages (M0)
- method description: cell shape (eccentricity) Z-score vs DMSO control; higher = more elongated, M2-like morphology
- condition: 20 µM; 24 h; macrophage state: M0 (M-CSF)
The full ranking holds about 3,800 compounds; the median of “cell shape (eccentricity) Z-score vs DMSO control” is about 1.1, and the lowest 2% start at about -4.7. What follows is part of a selection rich in the lowest values, with near analogues and random picks from the rest.
Measured cell shape (Z-score), listed per entry for reference.
The answer should be written as a number, with no unit following it.

Some compounds with recorded cell shape (Z-score):
{"columns": ["compound", "recorded value"],
 "data": [
  ["CCOc1cc(/C=C(/C#N)C(N)=O)cc(CSc2ccccc2)c1O", 2.62],
  ["CC1OC(OC2C(O[C@H]3OC[C@](O)(CO)[C@H]3O)COC(O[C@@H]3[C@@H](O)[C@@H](O)[C@H](OC4C(OC(=O)[C@]56CCC(C)(C)CC5C5=CCC7[C@@]8(C)C[C@H](O)[C@H](OC9OC(CO)C(O)C(O)C9O)[C@@](C)(CO)C8[C@H](O)C[C@@]7(C)[C@]5(C)CC6)OCC(O)C4O)O[C@H]3C)C2O)C(O)C(O)C1O (some centres undefined)", -5.84],
  ["CC1OC(OC2C(O)C(CO)OC(O[C@H]3CC[C@@]4(C)C(CC[C@]5(C)C4CC=C4C6CC(C)(C)CC[C@]6(C(=O)OC6OCC(OC7OCC(O)C(O)C7O)C(O)C6O)CC[C@]45C)C3(C)C)C2O)C(O)C(OC2OCC(O)(CO)C2O)C1O (some centres undefined)", -0.504]
]}

Recorded result, CC1OC(O[C@H]2[C@@H](O)C[C@@]3(C)C(CC[C@]4(C)C3CC=C3[C@@H]5CC(C)(C)CC[C@]5(C(=O)OC5OC(C)C(OC6OCC(OC7OCC(O)C(OC8OCC(O)C(O)C8O)C7O)C(O)C6O)C(O)C5O)CC[C@]34C)[C@]2(C)CO)C(O)C(OC2OC(CO)C(O)C(O)C2O)C1O (some centres undefined) , cell shape (Z-score): 0.13

----------
- Tested on: human monocyte-derived macrophages (M0)
- method description: cell shape (eccentricity) Z-score vs DMSO control; higher = more elongated, M2-like morphology
- condition: 20 µM; 24 h; macrophage state: M0 (M-CSF)
In all, about 3,800 compounds were measured (“cell shape (eccentricity) Z-score vs DMSO control”: median about 1.1, lowest 2% from about -4.7 on). Only a selection was taken, and the lowest values are over-represented in it overall.
value type: cell shape (Z-score)

Reference set, count: 5
{"columns": ["compound", "recorded value"],
 "data": [
  ["COc1cc(O[C@@H]2O[C@H](CO[C@H]3OC[C@](O)(CO)[C@H]3O)[C@@H](O)[C@H](O)[C@H]2O)cc(OC)c1OC", 1.07],
  ["C=C(C(=O)O[C@H]1CC=C(C)C[C@H](O)[C@H]2[C@H](C)C(=O)O[C@@H]2/C=C/1C)[C@@H]1CCC(=C)[C@@H]2C[C@H](O[C@@H]3O[C@H](CO[C@H]4OC[C@](O)(CO)[C@H]4O)[C@@H](O)[C@H](O)[C@H]3O)C(=C)[C@@H]2C1", -4.65],
  ["O=C(Cc1ccc(O)cc1)OC1[C@@H](O)[C@@H](O)C(OC(=O)Cc2ccc(O)cc2)[C@H](O)[C@@H]1O (stereo partly drawn)", 2.31],
  ["COc1cc2oc(-c3ccccc3)cc(=O)c2c(O)c1OC", 3.73],
  ["C#CC1(OCC(O)CN2CCN(c3ccccc3OC)CC2)CCCCC1 (stereo not drawn)", -0.311]
]}

The value of cell shape (Z-score) measured for the compound C=C1C(=O)O[C@@H]2[C@H]3C(CO)=CC(=O)C3=C(C)C[C@H](OC(=O)Cc3ccc(O)cc3)[C@@H]12 turned out to be -6.23

GET /value?item= C/C=C(/C)C(=O)O[C@H]1C=C(C)C[C@H](OC(=O)c2ccc(O)cc2)C2[C@](O)(C(C)C)CC[C@@]21C (stereo partly drawn) &field=cell shape (Z-score) returns -3.37

Field cell shape (Z-score) (entry OCC(O)CN1CCN(c2ccccc2)CC1 (stereo not drawn) ) reads 2.29

----------
- Tested on: human monocyte-derived macrophages (M0)
- method description: cell shape (eccentricity) Z-score vs DMSO control; higher = more elongated, M2-like morphology
- condition: 20 µM; 24 h; macrophage state: M0 (M-CSF)
In all, about 3,800 compounds were measured (“cell shape (eccentricity) Z-score vs DMSO control”: median about 1.1, lowest 2% from about -4.7 on). For the sample, the lowest values were picked, then their nearest neighbours and some compounds at random.
# maps each entry to its cell shape (Z-score)
The reply should be a number, written without any unit.

{"columns": ["compound", "value type", "recorded value"],
 "data": [
  ["Cc1cc(O)c2c(c1)C(=O)c1cccc(O)c1C2=O", "cell shape (Z-score)", 3.93],
  ["C[C@H]1CN([C@@H](C)CO)S(=O)(=O)c2ccc(C#Cc3ccncc3)cc2O[C@@H]1CN(C)C(=O)Nc1ccc2c(c1)OCO2", "cell shape (Z-score)", -10.9],
  ["CC1(C)CC[C@]2(C(=O)O[C@@H]3O[C@H](CO)[C@@H](O)[C@H](O)[C@H]3O)CC[C@]3(C)C(=CCC4[C@@]5(C)C[C@@H](O)[C@H](O)[C@](C)(CO)C5CC[C@]43C)C2[C@@H]1O (stereo partly drawn)", "cell shape (Z-score)", 1.6],
  ["C[C@H]1CN([C@@H](C)CO)S(=O)(=O)c2ccc(C#Cc3ccccc3F)cc2O[C@H]1CN(C)C(=O)Cc1ccncc1", "cell shape (Z-score)", 2.68],
  ["Cc1cccc(-c2[nH]c(C(C)(C)C)nc2-c2ccc3nccnc3c2)n1", "cell shape (Z-score)", 4.84]
]}

Tested on human monocyte-derived macrophages (M0), the item Cc1cc(O)c2c(c1)C(=O)C1=C(C2=O)C(O)C(O)C(O)C1O (stereo not drawn) showed cell shape (Z-score) equal to -13.9

C=C1C(=O)O[C@@H]2C[C@H](C)C3C[C@H](O)[C@H](O)[C@@]3(C)C[C@H]12 (stereo partly drawn) tested on human monocyte-derived macrophages (M0) gave cell shape (Z-score): -2.78

Case CC(C)c1ccc(Cn2ccc3c4c(N)nc(NC5CC5)nc4ccc32)cc1 , human monocyte-derived macrophages (M0), cell shape (Z-score) recorded as -4.69

----------
Catalogue of cell shape (Z-score) readings, one per entry.
- Test system: human monocyte-derived macrophages (M0)
- method description: cell shape (eccentricity) Z-score vs DMSO control; higher = more elongated, M2-like morphology
- condition: 20 µM; 24 h; macrophage state: M0 (M-CSF)
Over roughly 3,800 compounds, “cell shape (eccentricity) Z-score vs DMSO control” has its median near 1.1; the lowest 2% begin near -4.7. Shown is part of a subset that was picked to be rich in the lowest values.
When you answer, write just the number.

Reference set, count: 3
{"columns": ["molecule", "cell shape (Z-score)"],
 "data": [
  ["CC(=O)OCC(Cc1ccccc1)NC(=O)C(Cc1ccccc1)NC(=O)c1ccccc1 (stereo unspecified)", 0.368],
  ["CCCCCCCCCCCCCCCCCCc1ccc(C(=O)C=CC(=O)O)cc1", 0.47],
  ["CC1=C(CO)C(=O)OC([C@@H](C)[C@H]2CCC3C4CC=C5C[C@@H](O[C@@H]6O[C@H](CO)[C@@H](O)[C@H](O)[C@H]6O)C[C@H](O)[C@]5(C)C4CC[C@@]32C)C1 (stereo partly specified)", 1.5]
]}

So, CCCCCCCCc1ccc(CCC(N)(CO)CO)cc1 ? Its cell shape (Z-score) was -5.98

Value of measured cell shape (Z-score) for the entry CNc1cc(NS(=O)(=O)c2ccc(N)cc2)nc(NC)n1 : 3.31

Sample CCCCCCCCc1ccc(-c2ccc(C(=O)O)cc2)cc1 ; cell shape (Z-score) observed: 7.84

----------
- Tested on: human monocyte-derived macrophages (M0)
- method description: cell shape (eccentricity) Z-score vs DMSO control; higher = more elongated, M2-like morphology
- condition: 20 µM; 24 h; macrophage state: M0 (M-CSF)
Over roughly 3,800 compounds, “cell shape (eccentricity) Z-score vs DMSO control” has its median near 1.1; the lowest 2% begin near -4.7. Only a selection was taken, and the lowest values are over-represented in it overall.
value type: cell shape (Z-score)
Number only, no unit.

Study these solved cases before continuing.
{"columns": ["molecule", "recorded value"],
 "data": [
  ["C=C1C(=O)O[C@@H]2/C=C(\\C)CC/C=C(\\C)CC[C@@H]12", -1.08],
  ["COC(=O)C1=CO[C@@H](O[C@@H]2O[C@H](CO)[C@@H](O)[C@H](O)[C@H]2O)[C@H]2[C@@H]1C=CC21C=C([C@H](C)O)C(=O)O1 (stereo not given in full)", 2.96]
]}

Form field cell shape (Z-score), entry CCC[C@@H]1C[C@@H](C(=O)NC(C(C)Cl)C2O[C@H](SC)[C@H](O)[C@@H](O)[C@H]2O)N(C)C1 (stereo not given in full) : 3.16

Notebook: C=C1C(=O)O[C@H]2[C@H]1CC/C(C)=C/CC[C@@]1(C)O[C@@H]21 , cell shape (Z-score) read as -3.88

Record O=C1C[C@@H](c2ccc(O)c(O)c2)Oc2cc(O[C@@H]3O[C@H](CO)[C@@H](O)[C@H](O)[C@H]3O)cc(O)c21 , field cell shape (Z-score): 0.661

// cell shape (Z-score) lookup, molecule = COC(CCc1ccc(O)c(O)c1)CC(=O)CCc1ccc(O)c(O)c1 (stereo not given) , result: 1.18

Given item C/C(=C\Cc1c(O[C@@H]2O[C@H](CO)[C@@H](O)[C@H](O)[C@H]2O)ccc2ccc(=O)oc12)CO , the value recorded as its cell shape (Z-score) is 0.962
